# Lookup of reported Dmax keyed by entry
# experimental.system: HiBiT tagged CK1α (Homo sapiens, UniProt P48729+Q96SW2)
# Sequence (P48729 whole entry): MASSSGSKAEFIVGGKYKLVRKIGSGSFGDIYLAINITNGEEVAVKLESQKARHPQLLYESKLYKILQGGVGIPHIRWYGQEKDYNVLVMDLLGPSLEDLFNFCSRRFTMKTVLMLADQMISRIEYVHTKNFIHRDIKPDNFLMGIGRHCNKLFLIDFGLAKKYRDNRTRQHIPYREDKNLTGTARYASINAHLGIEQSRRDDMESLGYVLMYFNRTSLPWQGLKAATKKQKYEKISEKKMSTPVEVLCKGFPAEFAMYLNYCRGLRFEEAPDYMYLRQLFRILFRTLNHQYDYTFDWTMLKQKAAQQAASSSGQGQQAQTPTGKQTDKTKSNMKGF
# Sequence (Q96SW2 whole entry): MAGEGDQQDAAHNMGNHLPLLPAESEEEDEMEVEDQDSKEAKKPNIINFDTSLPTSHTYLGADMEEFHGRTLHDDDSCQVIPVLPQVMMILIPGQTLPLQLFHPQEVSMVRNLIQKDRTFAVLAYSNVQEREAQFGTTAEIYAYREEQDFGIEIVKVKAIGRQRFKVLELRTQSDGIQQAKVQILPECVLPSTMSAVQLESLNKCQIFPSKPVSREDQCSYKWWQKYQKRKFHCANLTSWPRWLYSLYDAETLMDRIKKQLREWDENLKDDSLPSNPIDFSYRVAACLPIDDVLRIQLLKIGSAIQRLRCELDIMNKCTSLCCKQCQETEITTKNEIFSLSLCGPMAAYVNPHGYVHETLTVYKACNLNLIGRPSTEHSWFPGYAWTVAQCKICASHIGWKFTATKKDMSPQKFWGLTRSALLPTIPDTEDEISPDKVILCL
# Sequence (Q16531 whole entry partner): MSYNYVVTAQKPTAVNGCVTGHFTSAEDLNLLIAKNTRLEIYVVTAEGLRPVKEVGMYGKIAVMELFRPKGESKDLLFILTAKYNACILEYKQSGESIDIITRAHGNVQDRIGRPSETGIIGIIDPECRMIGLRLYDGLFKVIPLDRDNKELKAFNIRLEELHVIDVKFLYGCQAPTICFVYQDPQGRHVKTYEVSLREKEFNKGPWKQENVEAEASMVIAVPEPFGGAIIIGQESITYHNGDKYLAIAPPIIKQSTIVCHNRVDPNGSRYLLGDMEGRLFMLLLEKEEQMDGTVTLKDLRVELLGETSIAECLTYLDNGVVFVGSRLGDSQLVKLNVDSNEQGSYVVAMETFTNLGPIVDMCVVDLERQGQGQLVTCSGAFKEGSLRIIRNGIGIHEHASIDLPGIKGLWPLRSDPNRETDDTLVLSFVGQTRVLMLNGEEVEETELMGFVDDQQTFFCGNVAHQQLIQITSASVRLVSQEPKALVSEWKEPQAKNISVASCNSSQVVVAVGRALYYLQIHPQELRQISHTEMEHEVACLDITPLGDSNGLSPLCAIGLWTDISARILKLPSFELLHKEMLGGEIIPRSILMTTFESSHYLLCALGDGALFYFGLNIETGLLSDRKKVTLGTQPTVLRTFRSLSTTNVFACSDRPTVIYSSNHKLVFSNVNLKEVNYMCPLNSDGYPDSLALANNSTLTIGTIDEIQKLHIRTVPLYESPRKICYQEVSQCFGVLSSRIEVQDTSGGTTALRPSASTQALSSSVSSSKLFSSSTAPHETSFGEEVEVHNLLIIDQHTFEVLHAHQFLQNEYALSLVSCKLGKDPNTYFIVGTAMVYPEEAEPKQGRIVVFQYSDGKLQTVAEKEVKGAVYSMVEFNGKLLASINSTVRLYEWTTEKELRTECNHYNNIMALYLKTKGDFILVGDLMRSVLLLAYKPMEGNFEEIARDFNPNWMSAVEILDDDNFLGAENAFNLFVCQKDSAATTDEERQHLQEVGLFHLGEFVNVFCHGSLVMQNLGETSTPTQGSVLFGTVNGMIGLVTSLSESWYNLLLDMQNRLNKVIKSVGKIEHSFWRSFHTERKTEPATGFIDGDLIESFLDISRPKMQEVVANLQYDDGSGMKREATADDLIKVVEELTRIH
# test.method.notes: CK1α degradation assay (HiBiT assay)
# Type: cell-based
# applied.conditions: HT-1080, HT-1080 cells, 20 hours; maximum CK1α degradation
# Experimental: CK1α and GSPT1 Degradation Assay (HiBiT Assay) The following is an example of an assay that can be used to determine the dose-dependent CK1α and GSPT1 degradation activities of test compounds in a human cell line such as HT-1080 (ATCC Cat #CRL-9591). […] Luminescence was then measured with an EnVision plate reader (PerkinElmer) or a PHERAstar plate reader (BMG Labtech). […] CK1α or GSPT1 levels in compound-treated wells were normalized to that of DMSO control and expressed as Percent of Control (PoC, y). […]

compound: O=C1CCC(N2Cc3cc(C(=O)N[C@H](c4ccc(F)cc4)C4CCOCC4)ccc3C2=O)C(=O)N1 (stereo in doubt) [Compound 38]
Dmax [%]: 64.1
//
compound: O=C1CCC(N2Cc3cc(C(=O)N[C@H](c4ncccc4F)C4(F)CCC4)ccc3C2=O)C(=O)N1 (stereo in doubt) [Compound 88]
Dmax [%]: 55.4
//
compound: O=C1CCC(N2Cc3cc(C(=O)N[C@H](c4ccc(F)cc4Cl)C4CC4)ccc3C2=O)C(=O)N1 (stereo in doubt) [Compound 13]
Dmax [%]: 65.9

---

# Lookup of reported DC50 keyed by entry
# experimental.system: HiBiT tagged CK1α (Homo sapiens, UniProt P48729+Q96SW2)
# test.method.notes: CK1α degradation assay (HiBiT assay)
# Type: cell-based
# applied.conditions: HT-1080 cells, 20 hours; concentration at 50% CK1α degradation

molecule: Cc1ccccc1[C@@H](NC(=O)c1ccc2c(c1)CN(C1CCC(=O)NC1=O)C2=O)C1CC1 (stereo in doubt)
unit.symbol: nM
DC50: 363
//
molecule: O=C1CCC(N2Cc3cc(C(=O)N[C@H](c4ccc(F)cc4)C4CC4)ccc3C2=O)C(=O)N1 (stereo in doubt)
unit.symbol: nM
DC50: 706
//
molecule: O=C1CCC(N2Cc3cc(C(=O)N[C@H](c4ccc(F)cn4)C4CCC4)ccc3C2=O)C(=O)N1 (stereo in doubt)
unit.symbol: nM
DC50: 198
//
molecule: O=C1CCC(N2Cc3cc(C(=O)N[C@H](c4ccc(Cl)cn4)C4CCC4)ccc3C2=O)C(=O)N1 (stereo in doubt)
unit.symbol: nM
DC50: 219
//
molecule: O=C1CCC(N2Cc3cc(C(=O)N[C@H](c4ccccc4Cl)C4CC4)ccc3C2=O)C(=O)N1 (stereo in doubt)
unit.symbol: nM
DC50: 140
//
molecule: O=C1CCC(N2Cc3cc(C(=O)N[C@H](c4ccc(F)cc4F)C4CCC4)ccc3C2=O)C(=O)N1 (stereo in doubt)
unit.symbol: nM
DC50: 82.4
//
molecule: O=C1CCC(N2Cc3cc(C(=O)N[C@H](c4ncccc4Cl)C4CCC4)ccc3C2=O)C(=O)N1 (stereo in doubt)
unit.symbol: nM
DC50: 137
//
molecule: O=C1CCC(N2Cc3cc(C(=O)N[C@H](c4ccc(F)cc4)C4CCOCC4)ccc3C2=O)C(=O)N1 (stereo in doubt)
unit.symbol: nM
DC50: 218
//
molecule: O=C1CC[C@H](N2Cc3cc(C(=O)N[C@H](c4ccc(F)c(F)c4)C4CCC4)ccc3C2=O)C(=O)N1 (racemic) [Compound 48]
unit.symbol: nM
DC50: 130
//
molecule: O=C1CCC(N2Cc3cc(C(=O)NC(c4ccc(F)cc4)C4CC(F)(F)C4)ccc3C2=O)C(=O)N1 (stereo not shown)
unit.symbol: nM
DC50: 183
//
molecule: O=C1CCC(N2Cc3cc(C(=O)N[C@H](c4ncc(F)cc4Cl)C4CC4)ccc3C2=O)C(=O)N1 (stereo in doubt)
unit.symbol: nM
DC50: 455
//
molecule: O=C1CCC(N2Cc3cc(C(=O)N[C@H](c4ncc(Cl)cc4F)C4CCC4)ccc3C2=O)C(=O)N1 (stereo in doubt)
unit.symbol: nM
DC50: 652
//
molecule: O=C1CCC(N2Cc3cc(C(=O)NC(c4ccc(F)cc4F)C4CC4)ccc3C2=O)C(=O)N1 (stereo not shown)
unit.symbol: nM
DC50: 221
